molecular target: hTRPV3 (Homo sapiens (Human), UniProt Q8NET8); experiment: FLIPR Assay (calcium flux, HEK293 cells stably expressing TRPV3); format: cell-based; conditions: read-out: FLIPR IC50
Sequence (Q8NET8 whole entry): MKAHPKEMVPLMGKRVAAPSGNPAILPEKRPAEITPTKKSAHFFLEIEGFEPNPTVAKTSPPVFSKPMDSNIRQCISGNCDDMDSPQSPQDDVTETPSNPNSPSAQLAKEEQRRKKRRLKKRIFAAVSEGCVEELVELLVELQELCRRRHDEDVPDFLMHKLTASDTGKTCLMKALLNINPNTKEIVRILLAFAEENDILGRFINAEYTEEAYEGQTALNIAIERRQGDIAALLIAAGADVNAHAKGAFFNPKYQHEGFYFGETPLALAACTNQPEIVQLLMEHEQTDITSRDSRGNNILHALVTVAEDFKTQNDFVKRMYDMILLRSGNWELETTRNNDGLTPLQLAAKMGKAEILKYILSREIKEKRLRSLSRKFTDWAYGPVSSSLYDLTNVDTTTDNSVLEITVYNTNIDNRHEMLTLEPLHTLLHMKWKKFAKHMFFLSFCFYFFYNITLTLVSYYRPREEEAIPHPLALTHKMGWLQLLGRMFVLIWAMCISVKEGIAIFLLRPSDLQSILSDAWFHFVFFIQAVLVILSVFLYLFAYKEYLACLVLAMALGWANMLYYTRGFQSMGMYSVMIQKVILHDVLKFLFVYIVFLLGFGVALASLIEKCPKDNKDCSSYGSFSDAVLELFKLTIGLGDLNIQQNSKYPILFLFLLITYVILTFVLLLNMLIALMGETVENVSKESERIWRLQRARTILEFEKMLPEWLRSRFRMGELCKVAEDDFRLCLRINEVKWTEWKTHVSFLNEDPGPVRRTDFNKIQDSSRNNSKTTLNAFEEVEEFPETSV
Documented pIC50 across a set of compounds
A value of pIC50 is the negative decimal logarithm of a concentration given in moles per litre.

O=C(c1ncon1)N1CCC(c2ccc(-c3ccccc3C3CC3)cc2CO)C1 (stereo not shown) : 5.72
Cc1nc(C(=O)N2CCC(c3ccc(-c4ccccc4C4CC4)cc3CO)C2)ccc1CO (stereo not shown) : 5.49
Cc1coc(C(=O)N2CCC(c3ccc(-c4ccccc4C4CC4)cc3CO)C2)n1 (stereo not shown) : 5.23
O=C(c1ccc(O)cn1)N1CCC(c2ccc(-c3ccccc3C3CC3)cc2CO)C1 (stereo not shown) : 5.51
O=C(c1cc2n(n1)CCC2)N1CCC(c2ccc(-c3ccccc3C3CC3)cc2CO)C1 (stereo not shown) : 5.28

Using the record for CCc1oc(C(=O)N2CCC(c3ccc(-c4ccccc4C4CC4)cc3CO)C2)nc1C (stereo not shown) , report its pIC50. 5.35

Return reported pIC50; argument: COCc1ccnc(C(=O)N2CCC(c3ccc(-c4ccccc4C4CC4)cc3CO)C2)c1 (stereo not shown) 5.03

What measured pIC50 goes with COc1ncc(C(=O)N2CCC(c3ccc(-c4ccccc4C4CC4)cc3CO)C2)nc1C (stereo not shown) ? 5.93

====

experiment: Aqueous solubility assay in Normal Ringer Solution; settings: Normal Ringer Solution, saline or isotonic, kinetic from dmso stock
measured_endpoint: solubility at 40 min

NC(=O)c1cc(C(O)c2ccccc2)ccc1N1CC[C@H](Oc2ccc(C(F)(F)F)cn2)C1 (stereo partly shown) : > 13.3 µM
CCc1ccccc1Oc1ccc(N2CC[C@H](Oc3ncccc3F)C2)c(CO)c1 : ~0.38 µM
Cc1ccccc1C(O)c1ccc(N2CC[C@H](Oc3ncccc3F)C2)c(CO)c1 (stereo partly shown) : > 26.8 µM

Requested read-out: solubility at 40 min. Entry: CCc1ccccc1Oc1ccc(C2CCN(C(=O)c3ncccc3Cl)C2)c(CO)c1 (stereo not shown) > 11 µM

====

target: rat (r) TRPV3 (Rattus norvegicus, UniProt E9PU00); experiment: Whole-cell patch clamp, rTRPV3 Phase 1 / Phase 2 currents; format: cell-based; details: rTRPV3 (nM) (Phase 2), Phase 2 current
Sequence (E9PU00 1-791): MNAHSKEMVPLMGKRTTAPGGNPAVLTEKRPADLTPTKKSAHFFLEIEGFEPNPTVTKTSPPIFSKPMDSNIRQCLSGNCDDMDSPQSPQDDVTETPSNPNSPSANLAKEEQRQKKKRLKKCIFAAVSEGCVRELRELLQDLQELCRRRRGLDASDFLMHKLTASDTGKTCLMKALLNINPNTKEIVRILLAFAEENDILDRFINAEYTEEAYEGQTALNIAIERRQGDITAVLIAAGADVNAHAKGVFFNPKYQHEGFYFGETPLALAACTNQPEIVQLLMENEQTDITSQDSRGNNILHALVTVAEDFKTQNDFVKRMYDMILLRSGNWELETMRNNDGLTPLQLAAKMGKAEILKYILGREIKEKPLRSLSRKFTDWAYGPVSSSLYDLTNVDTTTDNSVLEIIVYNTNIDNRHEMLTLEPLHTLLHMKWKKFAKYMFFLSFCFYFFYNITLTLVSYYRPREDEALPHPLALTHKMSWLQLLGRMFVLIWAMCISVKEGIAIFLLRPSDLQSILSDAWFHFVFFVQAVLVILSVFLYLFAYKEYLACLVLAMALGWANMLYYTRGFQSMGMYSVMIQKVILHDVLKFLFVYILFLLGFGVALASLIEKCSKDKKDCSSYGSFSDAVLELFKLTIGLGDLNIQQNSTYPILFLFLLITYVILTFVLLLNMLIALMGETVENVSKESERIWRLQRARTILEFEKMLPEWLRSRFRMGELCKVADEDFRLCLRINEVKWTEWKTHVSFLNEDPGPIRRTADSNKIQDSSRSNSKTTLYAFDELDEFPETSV
measured_endpoint: IC50

Tell me reported IC50 for OCc1cc([C@@H](O)c2ccccc2Cl)ccc1N1CC[C@H](Oc2ncccc2F)C1 , tested with rat (r) TRPV3 (Rattus norvegicus, UniProt E9PU00). ~15.7 nM

====

test: Aqueous solubility assay in Normal Ringer Solution; settings: Normal Ringer Solution, saline or isotonic, kinetic from dmso stock
solubility at 40 min values, listed per item

Worked examples follow.
OCc1cc(C(O)c2ccccc2Cl)ccc1N1CC[C@H](Oc2ncccc2F)C1 (some centres unmarked) : > 13.2 µM
NC(=O)c1cc(Cl)ccc1N1CC[C@H](Oc2ccc(C(F)(F)F)cn2)C1 : > 16.8 µM
CCc1ccccc1Oc1ccc(N2CC[C@H](OCc3ncccc3C)C2)c(CO)c1 : ~1.4 µM
CCc1ccccc1-c1ccc(C2CCN(C(=O)c3ncccc3Cl)C2)c(CO)c1 (centres unmarked) : > 17.8 µM
OCCOc1cc(-c2ccccc2)ccc1N1CC[C@H](Oc2ccc(C(F)(F)F)cn2)C1 : 0.19 µM

Which measured solubility at 40 min value corresponds to OCc1ccc(-c2ccccc2)cc1N1CC[C@H](Oc2ccc(C(F)(F)F)cn2)C1 ? ~0.2 µM

Report solubility at 40 min for NC(=O)c1cc(-c2ccccc2)ccc1N1CC[C@@H](Oc2ncccc2Cl)C1 please. 0.32 µM

Would you kindly share the measured solubility at 40 min for COC(c1ccc(F)cc1)c1ccc(N2CC[C@H](Oc3ncccc3Cl)C2)c(CO)c1 (some centres unmarked) ? ~1.75 µM

Source listed as patent US12435061B2.
